Assay info: Clearance in rat at 2 mg/kg, iv
Assay type: ADME, organism-based
Set-up: dose 2 mg/kg, route intravenous
Conditions: in vivo
Assay readout: clearance (mL/min/kg)
Just the number please, in mL/min/kg, no unit attached.

# compound CCCCn1nc(-c2nc3ccccc3s2)nc2c(=O)n(C)c(=O)nc1-2 ; its clearance = 85.5

----------
Assay info: Metabolic stability in rat liver microsomes assessed as compound recovery at 3 uM after 45 mins by LC-MS/MS analysis in absence of NADPH
Type: ADME, Microsome
Conditions: read-out: Activity
Assay readout: remaining at 0.75 h, 3 µM (%)
Just the number please, in %, no unit attached.

Previously resolved entries follow.
{"Structure as smiles": "Cn1c(=O)nc2n(CCC3CC3)nc(-c3ccc4c(c3)OC(F)(F)O4)nc-2c1=O", "Units label": "%", "remaining at 0.75 h, 3 µM": 73}
{"Structure as smiles": "Cn1c(=O)nc2n(CCC3CC3)nc(C34CC5CC(CC(C5)C3)C4)nc-2c1=O", "Units label": "%", "remaining at 0.75 h, 3 µM": 90}
{"Structure as smiles": "Cn1nc(-c2ccc(C(F)(F)F)cc2)nc2c(=O)n(C)c(=O)nc1-2", "Units label": "%", "remaining at 0.75 h, 3 µM": 105}

# molecule CCn1c(=O)nc2n(CCC(C)C)nc(-c3nc4ccccc4s3)nc-2c1=O ; its remaining at 0.75 h, 3 µM = 25

# molecule CCn1nc(-c2cccc(Cl)c2)nc2c(=O)n(C)c(=O)nc1-2 ; its remaining at 0.75 h, 3 µM = 101
